Experiment: Inhibition of prolyl 4-hydroxylase
MEASURED_METRIC: pIC50
# pIC50 is unitless: minus log10 of the molar concentration; print number only

Some solved entries appear below for comparison.
SUBSTANCE_SMILES: CS(=O)(=O)NC(=O)c1ccc(C(=O)O)nc1
pIC50: 5.74
--
SUBSTANCE_SMILES: O=C(NS(=O)(=O)Cc1ccccc1)c1ccc(C(=O)O)nc1
pIC50: 5.52
--
SUBSTANCE_SMILES: O=C(NS(=O)(=O)c1cccc2cccnc12)c1ccc(C(=O)O)nc1
pIC50: 5.74
--
SUBSTANCE_SMILES: O=C(NS(=O)(=O)c1ccc(Cl)s1)c1ccc(C(=O)O)nc1
pIC50: 5.62
--
SUBSTANCE_SMILES: O=C(NS(=O)(=O)c1cccc2ccccc12)c1ccc(C(=O)O)nc1
pIC50: 5.36

Reported pIC50 ( O=C(NS(=O)(=O)c1cc(Br)c(Br)s1)c1ccc(C(=O)O)nc1 ) = 5.07

Reported pIC50 ( O=C(NS(=O)(=O)c1ccc(-c2cc(Cl)c3ccc(Cl)cc3n2)cc1)c1ccc(C(=O)O)nc1 ) = 5.18

Where these numbers come from: BindingDB's records for doi:10.1021/jm00083a001
